# study.target: UniProt:O60658
# Sequence (O60658 whole entry): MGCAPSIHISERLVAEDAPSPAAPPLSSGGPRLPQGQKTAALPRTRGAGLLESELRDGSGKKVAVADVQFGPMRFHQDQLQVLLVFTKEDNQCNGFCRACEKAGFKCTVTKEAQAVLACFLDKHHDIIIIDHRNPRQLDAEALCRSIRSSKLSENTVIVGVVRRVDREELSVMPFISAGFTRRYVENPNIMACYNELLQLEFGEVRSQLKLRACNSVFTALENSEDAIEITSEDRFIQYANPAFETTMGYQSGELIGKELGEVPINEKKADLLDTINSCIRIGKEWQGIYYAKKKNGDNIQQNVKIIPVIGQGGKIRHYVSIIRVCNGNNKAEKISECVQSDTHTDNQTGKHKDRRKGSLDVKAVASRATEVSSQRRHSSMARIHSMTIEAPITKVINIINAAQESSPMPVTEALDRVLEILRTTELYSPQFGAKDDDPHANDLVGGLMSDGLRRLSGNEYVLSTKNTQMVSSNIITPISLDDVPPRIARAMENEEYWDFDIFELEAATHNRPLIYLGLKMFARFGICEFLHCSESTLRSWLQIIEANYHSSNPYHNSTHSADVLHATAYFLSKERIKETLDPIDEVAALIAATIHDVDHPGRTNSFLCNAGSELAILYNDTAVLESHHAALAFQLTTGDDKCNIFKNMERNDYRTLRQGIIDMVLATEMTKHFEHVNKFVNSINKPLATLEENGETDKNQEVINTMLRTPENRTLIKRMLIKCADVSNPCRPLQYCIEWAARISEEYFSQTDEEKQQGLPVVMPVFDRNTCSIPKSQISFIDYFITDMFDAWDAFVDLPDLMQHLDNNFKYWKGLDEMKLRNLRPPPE
outcome.measure: pIC50
Numbers only, as −log10 of the molar value.

For OCCN(CCO)c1nc(N2CCCCC2)c2nc(N(CCO)CCO)nc(N3CCCCC3)c2n1 the compound record lists pIC50 as 6.30

----------
// endpoint IC50 / system cGMP-inhibited 3',5'-cyclic phosphodiesterase 3A (Homo sapiens, UniProt Q14432)
One number for each entry, in nM.

COc1cc2c(cc1OC)-c1c/c(=N\c3c(C)cc(C)cc3C)n(C)c(=O)n1CC2; 0.3

# evaluate next
For COc1cc(-c2ccc(=O)[nH]n2)ccc1OC(F)F the compound record lists IC50 as 500
